Entry source: ChEMBL document CHEMBL4811294

# PROTOCOL_TEXT: Cytotoxicity against golden hamster BSR-T7 cells assessed as reduction in cell viability measured after 18 to 24 hrs by MTT assay
# Format: cell-based, Mesocricetus auratus, BSR-T7/5
# MEASUREMENT_CONDITIONS: bsr-t7/5, time 18-24 hrs
Please go through the items and note down their CC50.

Past entries and their recorded results:
Task item: // lookup CC50 for O=C(NCCc1ccncc1)[C@H]1[C@@H]2CCN(C(=O)c3cc4ccccc4n3Cc3ccc(Cl)cc3)C[C@@H]21
Reply: > 100 µM

Task item: // lookup CC50 for O=C(c1cc2ccccc2n1Cc1ccc(Cl)cc1)N1CCC(C(=O)N2CCCC2c2ccccc2)CC1 (centres undefined)
Reply: > 100 µM

Task item: // lookup CC50 for O=C(c1cc2ccccc2n1Cc1ccc(Cl)cc1)N1CCC(C(=O)N2Cc3ccccc3C2)CC1
Reply: > 100 µM

Task item: // lookup CC50 for Cc1c(C(=O)N2CCC(C(=O)NCc3ccccc3)CC2)n(Cc2ccc(Cl)cc2)c2ccccc12
Reply: > 100 µM

Task item: // lookup CC50 for CC1(C(=O)NCCc2ccncc2)CCN(C(=O)c2cc3ccccc3n2Cc2ccc(Cl)cc2)CC1
Reply: > 50 µM

Answer for every listed entry: what is its CC50? The entries follow.
1. O=C(c1cc2ccccc2n1Cc1ccc(Cl)cc1)N1CCC(/C=C\CCc2ccncc2)CC1
2. Cc1cccc2cc(C(=O)N3CCC(C(=O)NCc4ccccc4)CC3)n(Cc3ccc(Cl)cc3)c12
3. O=C(NCCc1ccncc1)C1CC2(C1)CN(C(=O)c1cc3ccccc3n1Cc1ccc(Cl)cc1)C2
4. O=C(NCC1CCc2ccccc21)C1CCN(C(=O)c2cc3ccccc3n2Cc2ccc(Cl)cc2)CC1 (centres undefined)

Reply:
1. > 50 µM
2. > 100 µM
3. 56.5 µM
4. > 100 µM

* * *

# PROTOCOL_TEXT: Cytotoxicity against golden hamster BSR-T7 cells assessed as reduction in cell viability measured after 18 to 24 hrs by MTT assay
# Assay type: cell-based, Mesocricetus auratus, BSR-T7/5
# MEASUREMENT_CONDITIONS: bsr-t7/5, time 18-24 hrs
ATTRIBUTE_MEASURED: CC50 (µM)
Give bare numbers, in µM.

Past entries and their recorded results:
Task item: // lookup CC50 for O=C(CC1CCN(C(=O)c2cc3ccccc3n2Cc2ccc(Cl)cc2)CC1)NCc1ccncc1
Reply: 77.3

Task item: // lookup CC50 for O=C(NCCc1ccncc1)C1=CCN(C(=O)c2cc3ccccc3n2Cc2ccc(Cl)cc2)CC1
Reply: 74.2

Here is the next item to consider.
Task item: // lookup CC50 for O=C(NCCc1ccncc1)N1CCN(C(=O)c2cc3ccccc3n2Cc2ccc(Cl)cc2)CC1
Reply: 78

* * *

Please go through the items and note down their CC50.
# PROTOCOL_TEXT: Cytotoxicity against golden hamster BSR-T7 cells assessed as reduction in cell viability measured after 18 to 24 hrs by MTT assay
# Assay type: cell-based, Mesocricetus auratus, BSR-T7/5
# MEASUREMENT_CONDITIONS: bsr-t7/5, time 18-24 hrs
Give bare numbers, in µM.

Task item: // lookup CC50 for O=C(c1cc2ccccc2n1Cc1ccc(Cl)cc1)N1CC[C@H]2C(=O)N(CCc3ccncc3)C[C@H]2C1
Reply: 61

Here is the next item to consider.
Task item: // lookup CC50 for CN(CCc1ccncc1)C(=O)[C@@H]1C[C@H]2CC[C@@H](C1)N2C(=O)c1cc2ccccc2n1Cc1ccc(Cl)cc1
Reply: 50.9
